Test: Rat pharmacokinetic parameters in rat plasma
Format: in vivo
Settings: male SD rats, PO 10 mg/kg
experimental-endpoint: Cmax (ng/mL)

Cc1cc(C)nc(N2C[C@H]3CN(C(=O)c4c(-c5ccccn5)nn5cc(F)ccc45)C[C@H]3C2)n1 [Example 30]
668

a: Cc1cc(C)nc(N2C[C@H]3CN(C(=O)c4c(-c5ccncc5)nn5ccccc45)C[C@H]3C2)n1 [Example 34]
b: Cc1cc(C)nc(N2C[C@H]3CN(C(=O)c4c(-c5ncccc5F)cn5ccccc45)C[C@H]3C2)n1 [Example 3]
Ask: Given the listed items, does a or b have the lesser reported Cmax? Pick one and reply with its label.
Result: a

Data provenance is patent US20250188095A1.
